Quick list: CC50 at 120 h per entry.
assay: Cytotoxicity against human MT4 cells after 5 days by MTT assay; type: cell-based

Example entries begin here.
[[record]]
molecule = "C[Si](C)(C)CCOCn1c(Sc2cccc(N)c2)cc(=O)[nH]c1=O"
measured = "> 25 µg/mL"

[[record]]
molecule = "O=C1Nc2ccc(Cl)cc2[C@@](C#CC2CC2)(C(F)(F)F)O1 [EFAVIRENZ]"
measured = "> 1 µg/mL"

[[record]]
molecule = "Cc1cn([C@H]2C[C@H](N=[N+]=[N-])[C@@H](CO)O2)c(=O)[nH]c1=O [ZIDOVUDINE]"
measured = "> 1 µg/mL"

[[record]]
molecule = "Cc1c(Sc2cccc(Cl)c2)n(COCCO)c(=O)[nH]c1=O"
measured = "> 25 µg/mL"

[[record]]
molecule = "Cc1ccc(C)c(Cn2c(Sc3cccc(N)c3)cc(=O)[nH]c2=O)c1"
measured = "> 25 µg/mL"

[[record]]
molecule = "CCOCn1c(Sc2c(Cl)cccc2Cl)cc(=O)[nH]c1=O"
measured = "> 25 µg/mL"


Would you kindly look at the next entry?
stdin: Recorded CC50 at 120 h of C[Si](C)(C)CCOCn1c(Sc2cccc(Cl)c2)cc(=O)[nH]c1=O , please.
stdout: 11.6 µg/mL

* * *

Quick list: CC50 at 120 h per entry.
test: Cytotoxicity against human MT4 cells after 5 days by MTT assay; format: cell-based
The response must be a number in µg/mL with no trailing unit.

stdin: Recorded CC50 at 120 h of CCOCn1c(Sc2cccc(Cl)c2)c(C)c(=S)[nH]c1=O , please.
stdout: 1.7

* * *

assay: Selectivity index, ratio of CC50 for human MT4 cells to EC50 for HIV1 NL4-3; format: toxicity, cell-based; settings: read-out: Ratio CC50/EC50
PROPERTY_LABEL: selectivity ratio

[[record]]
structure_as_smiles = "CCOCn1c(Sc2ccccc2)c(C)c(=S)[nH]c1=O"
property_label = "selectivity ratio"
measured = "> 4"


stdin: Recorded selectivity ratio of CCOCn1c(Sc2cccc(Cl)c2)c(C)c(=O)[nH]c1=O , please.
stdout: > 1670

stdin: Recorded selectivity ratio of Cc1c(Sc2cccc(Cl)c2)n(COCCO)c(=O)[nH]c1=O , please.
stdout: > 60

stdin: Recorded selectivity ratio of Cc1ccc(C)c(Cn2c(Sc3ccccc3)c(C)c(=O)[nH]c2=O)c1 , please.
stdout: > 20

stdin: Recorded selectivity ratio of Cc1ccc(C)c(Cn2c(Sc3cccc(N)c3)c(C)c(=O)[nH]c2=O)c1 , please.
stdout: > 13

stdin: Recorded selectivity ratio of Cc1ccc(C)c(Cn2c(Sc3cccc(Cl)c3)c(C)c(=O)[nH]c2=O)c1 , please.
stdout: > 40

stdin: Recorded selectivity ratio of Cc1cn([C@H]2C[C@H](N=[N+]=[N-])[C@@H](CO)O2)c(=O)[nH]c1=O , please.
stdout: > 1000

* * *

assay: Cytotoxicity against human MT4 cells after 5 days by MTT assay; type: cell-based
PROPERTY_LABEL: CC50 at 120 h

[[record]]
compound = "Cc1c(Sc2c(Cl)cccc2Cl)n(COCC[Si](C)(C)C)c(=O)[nH]c1=O"
measured = "9.2 µg/mL"

[[record]]
compound = "Cc1c(Sc2cccc(Cl)c2)n(COCC[Si](C)(C)C)c(=O)[nH]c1=O"
measured = "9.9 µg/mL"

[[record]]
compound = "Cc1ccc(C)c(Cn2c(Sc3ccccc3)cc(=O)[nH]c2=O)c1"
measured = "> 25 µg/mL"


stdin: Recorded CC50 at 120 h of Cc1ccc(C)c(Cn2c(Sc3c(Cl)cccc3Cl)c(C)c(=O)[nH]c2=O)c1 , please.
stdout: > 25 µg/mL

stdin: Recorded CC50 at 120 h of Cc1ccnc2c1NC(=O)c1cccnc1N2C1CC1 [NEVIRAPINE] , please.
stdout: > 5 µg/mL

stdin: Recorded CC50 at 120 h of CCOCn1c(Sc2ccccc2)cc(=O)[nH]c1=O , please.
stdout: > 25 µg/mL

stdin: Recorded CC50 at 120 h of Cc1c(Sc2cccc(N)c2)n(COCC[Si](C)(C)C)c(=O)[nH]c1=O , please.
stdout: > 25 µg/mL

stdin: Recorded CC50 at 120 h of Cc1ccc(C)c(Cn2c(Sc3cccc(N)c3)c(C)c(=O)[nH]c2=O)c1 , please.
stdout: > 25 µg/mL

* * *

experiment: Cytotoxicity against human MT4 cells after 5 days by MTT assay; type: cell-based
PROPERTY_LABEL: CC50 at 120 h

Example entries begin here.
[[record]]
structure_as_smiles = "CCOCn1c(Sc2cccc(N)c2)cc(=O)[nH]c1=O"
measured = "> 25 µg/mL"

[[record]]
structure_as_smiles = "C[Si](C)(C)CCOCn1c(Sc2c(Cl)cccc2Cl)cc(=O)[nH]c1=O"
measured = "10.6 µg/mL"

[[record]]
structure_as_smiles = "Cc1ccc(C)c(Cn2c(Sc3c(Cl)cccc3Cl)cc(=O)[nH]c2=O)c1"
measured = "> 25 µg/mL"


stdin: Recorded CC50 at 120 h of CCOCn1c(Sc2cccc(Cl)c2)cc(=O)[nH]c1=O , please.
stdout: > 25 µg/mL

stdin: Recorded CC50 at 120 h of Cc1c(Sc2ccccc2)n(COCC[Si](C)(C)C)c(=O)[nH]c1=O , please.
stdout: 9.9 µg/mL

* * *

experiment: Selectivity index, ratio of CC50 for human MT4 cells to EC50 for HIV1 NL4-3; assay type: toxicity, cell-based; details: read-out: Ratio CC50/EC50
PROPERTY_LABEL: selectivity ratio

[[record]]
structure_as_smiles = "CCOCn1c(Sc2c(Cl)cccc2Cl)c(C)c(=O)[nH]c1=O"
measured = "> 15"


stdin: Recorded selectivity ratio of CCOCn1c(Sc2cccc(N)c2)c(C)c(=O)[nH]c1=O , please.
stdout: > 63

stdin: Recorded selectivity ratio of CCOCn1c(Sc2ccccc2)c(C)c(=O)[nH]c1=O , please.
stdout: > 1000

stdin: Recorded selectivity ratio of Cc1c(Sc2ccccc2)n(COCCO)c(=O)[nH]c1=O , please.
stdout: > 25

stdin: Recorded selectivity ratio of Cc1c(Sc2cccc(N)c2)n(COCC[Si](C)(C)C)c(=O)[nH]c1=O , please.
stdout: > 57

* * *

test: Cytotoxicity against human MT4 cells after 5 days by MTT assay; assay type: cell-based
Quick list: CC50 at 120 h per entry.

Example entries begin here.
[[record]]
structure_as_smiles = "Cc1ccc(C)c(Cn2c(Sc3cccc(Cl)c3)cc(=O)[nH]c2=O)c1"
measured = "> 25 µg/mL"

[[record]]
structure_as_smiles = "CCOCn1c(Sc2cccc(N)c2)c(C)c(=O)[nH]c1=O"
measured = "> 25 µg/mL"


Would you kindly look at the next entry?
stdin: Recorded CC50 at 120 h of Cc1ccc(C)c(Cn2c(Sc3cccc(Cl)c3)c(C)c(=O)[nH]c2=O)c1 , please.
stdout: 13.6 µg/mL

Where do the numbers come from? From ChEMBL document CHEMBL2040755.
